Hey, just so you know, these numbers are from PubChem BioAssay (NCI).

Provide the recorded TGI for the entries that follow.
# Tested on: ACHN renal
# ASSAY METHOD TEXT: NCI tumour cell line growth inhibition, 48 h

// each molecule listed below needs its TGI
1. C/C(CCn1[nH]c(=O)ccc1=O)=N\NC(=O)C(=O)NN
2. CC(=O)N(C(=O)CC(=O)N1N=C(c2ccccc2)C(N=Nc2ccccc2[N+](=O)[O-])C1=O)c1ccc(Cl)cc1 (stereo not given)
3. COC(=O)C1=C(C(=O)OC)SC(=C2SCSC3=C2SC(C(=O)OC)=C(C(=O)OC)C32SC3=C(CCCC3)S2)S1

1. > 100 µM
2. > 10 µM
3. > 100 µM

// each molecule listed below needs its TGI
1. S=C(N/N=C(/c1ccccc1)c1ccccn1)N(Cc1ccccn1)Cc1ccccn1
2. CC1SC(c2ccc(F)cc2)N(NC(=O)C(O)c2ccccc2)C1=O (stereo not given)

0.74 µM
> 100 µM

====

# Test system: PC-3 prostate
# ASSAY METHOD TEXT: NCI tumour cell line growth inhibition, 48 h
READOUT KIND: TGI (µM)
One number for each entry, in µM.

The cases that follow already have their TGI on record.
INSERT INTO results (smiles, result_number) VALUES
  ('Cc1cc(I)cc(CN(CCCN(C)C)C(C)C)c1O', 30.4),
  ('C=CC1(CC/C(=C\[N+](=O)[O-])c2ccc(OC)c(OC)c2)OCC(C)(C)CO1', 57),
  ('Cc1ccc(-n2c3nc(=O)[nH]c(=O)c-3cc3cc([N+](=O)[O-])ccc32)cc1', 36.6);

Here is another molecule to look at.
Record `Cc1nnc(NC(=O)c2nc(S(=O)(=O)Cc3ccc(F)cc3)ncc2Cl)s1` : what is its TGI with PC-3 prostate?
22.9

====

# Test system: SN12C renal
# ASSAY METHOD TEXT: NCI tumour cell line growth inhibition, 48 h; in the data active = GI50 below about 0.43 µM; inactive = the rest
In this exercise, the only acceptable responses are 1 (active), 0 (inactive)

INSERT INTO measurements (compound, class_label) VALUES
  ('CCN(C(=O)N1CCN(c2cc3c(cc2F)c(=O)c(C(=O)O)cn3C2CC2)CC1)c1nc(-c2ccc(Cl)cc2)cs1', 0);

Kindly provide the recorded test outcome for the following compound: `COc1ccc2[nH]cc(/C=C(/C)c3ccncc3)c2c1`
0

Kindly provide the recorded test outcome for the following compound: `CCCOc1cc2ccccc2cc1C(=O)Nc1nc(N)c2c(ccc3nccc32)[nH]1`
0

Kindly provide the recorded test outcome for the following compound: `Nc1cc(NN=C(c2ccc(O)cc2)c2ccc(O)cc2)c([N+](=O)[O-])cc1[N+](=O)[O-]`
0

Kindly provide the recorded test outcome for the following compound: `N[C@@H]1CCCC[C@@H]1N.O=P([O-])([O-])CN(CCN(CP(=O)([O-])[O-])CP(=O)([O-])[O-])CP(=O)([O-])[O-].[Pt+2]`
0

Kindly provide the recorded test outcome for the following compound: CCN1C(=O)N(c2ccccc2)C2NC(=S)N(/N=C/C=C/c3ccccc3OC)C21 (centres undefined)
1

Kindly provide the recorded test outcome for the following compound: `COc1ccc(CCN=C2NC(=O)/C(=C/c3ccc4ncccc4c3)S2)cc1`
0

Kindly provide the recorded test outcome for the following compound: `Nc1c(C(=O)Nc2cccc(C(F)(F)F)c2)sc2nc3c(cc12)CCCCC3`
0

Kindly provide the recorded test outcome for the following compound: `CCOC(=O)C1=C(C)N(c2ccc(F)cc2F)[C@]2(C#N)C(O)=C(Cl)C(Cl)=C(O)[C@]12C#N`
0
